target: Cytochrome P450 2C9 (Homo sapiens, UniProt P11712)
Sequence (P11712 whole entry): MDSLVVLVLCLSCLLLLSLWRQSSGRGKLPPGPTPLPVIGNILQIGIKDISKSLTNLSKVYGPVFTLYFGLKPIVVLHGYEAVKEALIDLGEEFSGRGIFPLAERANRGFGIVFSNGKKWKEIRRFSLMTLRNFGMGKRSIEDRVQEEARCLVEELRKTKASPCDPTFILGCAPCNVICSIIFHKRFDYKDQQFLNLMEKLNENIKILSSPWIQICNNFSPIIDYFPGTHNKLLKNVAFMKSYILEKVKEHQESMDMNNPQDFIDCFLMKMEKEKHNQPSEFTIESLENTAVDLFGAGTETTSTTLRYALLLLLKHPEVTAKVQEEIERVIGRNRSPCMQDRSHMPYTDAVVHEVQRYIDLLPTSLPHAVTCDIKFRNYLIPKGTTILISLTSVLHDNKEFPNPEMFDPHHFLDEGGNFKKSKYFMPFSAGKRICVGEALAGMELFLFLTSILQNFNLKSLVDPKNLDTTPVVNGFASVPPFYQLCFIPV
Readout type: IC50 (µM)
// return numeric value only (unit: µM, not printed)

Inquiry: API: value(readout=IC50, system=Cytochrome P450 2C9 (Homo sapiens, UniProt P11712)) for record CCOc1ccc2c(=O)n(-c3ccc4nc5n(c4c3)CCN(C)C5)c(=O)n(-c3ccc(OC(F)F)cc3)c2n1
Reply text: 39.2

----------
assay: Clearance in ICR mouse at 1 mg/kg, iv measured for 0.083 to 24 hrs by LC-MS analysis; format: ADME, organism-based; conditions: in vivo, time 0.083-24 hrs
Readout type: clearance (mL/min/kg)
// return numeric value only (unit: mL/min/kg, not printed)

Inquiry: Endpoint output: clearance of CCOc1ncc2cc(-c3ccc4nc5n(c4c3)CCN(C)C5)c(=O)n(-c3ccc(OC(F)F)cc3)c2n1 . Value?
Reply text: 17.1
